meta.source: PubChem BioAssay

In this section we review reported cell count values for a set of compounds.
Test: inhibitors of TNFa-induced NFkB p65 translocation, primary screen, imaging, HUVEC, MLSMR starter and 10KST1 sets (AID 438);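 note: compound added about 3h40 before a 20 min TNFalpha stimulation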
Conditions: HUVEC TNFa-induced p65 nuclear translocation; measured here: nuclei count (cytotoxicity indicator), at 2.08 µM

// below: answered compounds
CC(C)(C)c1nc(CN2CCOCC2)ccc1O = 580
COc1ccc(/C=N/n2c(SC)nnc2-c2ccccc2)cc1C = 384
CC(=O)c1c(C)[nH]c(C(=O)NC2=NCCS2)c1C = 459
Cc1nc2c(-c3ccccc3)c(C)[nH]n2c(=O)c1Cl = 277
c1ccc(Cn2nnc3c(N4CCC5(CC4)OCCO5)ncnc32)cc1 = 382

Ask: Bench note: what cell count did CCN(CCCNC(=O)C1CCCN(S(=O)(=O)c2cnc[nH]2)C1)c1ccccc1 (stereo not drawn) show?
Reply: 611

Ask: For CCC1(CC)C(=O)N(C)C(=O)NC1=NCc1ccccc1 then?
Reply: 512

Ask: Note, next up: CCN(CC(=O)Nc1ccc2c(c1)CCC2)Cc1nc2ccccc2c(=O)[nH]1
Reply: 382

Ask: Follow-up item: COCCn1c(=O)[nH]c2cc(C(=O)N3CCN(Cc4ccc5c(c4)OCO5)CC3)ccc2c1=O
Reply: 742

Ask: Another compound: Cc1ccc(-c2cn3cccnc3n2)cc1NC(=O)c1ccc(Br)o1
Reply: 420
